- Study system: human full-length ER-α (Homo sapiens, UniProt P03372)
- Construct: expression vectors for human full-length ER-α or ER-β
- Sequence (P03372 whole entry): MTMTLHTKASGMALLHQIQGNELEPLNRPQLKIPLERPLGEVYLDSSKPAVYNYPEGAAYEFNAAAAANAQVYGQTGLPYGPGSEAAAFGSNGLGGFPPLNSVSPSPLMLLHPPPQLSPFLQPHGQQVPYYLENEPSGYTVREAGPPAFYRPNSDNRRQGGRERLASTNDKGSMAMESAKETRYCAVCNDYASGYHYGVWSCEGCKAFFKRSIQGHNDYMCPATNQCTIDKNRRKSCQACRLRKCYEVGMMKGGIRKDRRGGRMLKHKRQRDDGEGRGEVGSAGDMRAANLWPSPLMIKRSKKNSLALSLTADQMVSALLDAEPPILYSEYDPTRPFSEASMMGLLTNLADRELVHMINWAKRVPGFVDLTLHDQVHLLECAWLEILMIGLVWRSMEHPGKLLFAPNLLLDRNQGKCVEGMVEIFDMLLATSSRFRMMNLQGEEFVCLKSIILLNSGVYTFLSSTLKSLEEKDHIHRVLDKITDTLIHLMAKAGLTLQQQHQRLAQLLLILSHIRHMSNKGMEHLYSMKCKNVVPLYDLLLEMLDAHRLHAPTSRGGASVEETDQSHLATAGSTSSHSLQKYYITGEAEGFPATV
- Assay comment: IL-6 production in U2OS osteosarcoma cells stably transfected with ER-α
Quantity kind: IC50

>  <Compound>
O=c1oc2cc(O)ccc2c(-c2ccc(OCCN3CCCCC3)cc2)c1-c1ccc(Cl)cc1

>  <Data value>
0.325 µM

$$$$
>  <Compound>
CCN(CC)CCOc1ccc(-c2c(-c3ccccc3)c(=O)oc3cc(O)ccc23)cc1

>  <Data value>
> 1 µM

$$$$
>  <Compound>
CCN(CC)CCOc1ccc(-c2c(-c3ccccc3)c(=O)oc3ccccc23)cc1 ["L-20", reference compound]

>  <Data value>
> 1 µM

$$$$

----------
- Study system: human recombinant ER-β (Homo sapiens)
- Sequence (Q92731 whole entry): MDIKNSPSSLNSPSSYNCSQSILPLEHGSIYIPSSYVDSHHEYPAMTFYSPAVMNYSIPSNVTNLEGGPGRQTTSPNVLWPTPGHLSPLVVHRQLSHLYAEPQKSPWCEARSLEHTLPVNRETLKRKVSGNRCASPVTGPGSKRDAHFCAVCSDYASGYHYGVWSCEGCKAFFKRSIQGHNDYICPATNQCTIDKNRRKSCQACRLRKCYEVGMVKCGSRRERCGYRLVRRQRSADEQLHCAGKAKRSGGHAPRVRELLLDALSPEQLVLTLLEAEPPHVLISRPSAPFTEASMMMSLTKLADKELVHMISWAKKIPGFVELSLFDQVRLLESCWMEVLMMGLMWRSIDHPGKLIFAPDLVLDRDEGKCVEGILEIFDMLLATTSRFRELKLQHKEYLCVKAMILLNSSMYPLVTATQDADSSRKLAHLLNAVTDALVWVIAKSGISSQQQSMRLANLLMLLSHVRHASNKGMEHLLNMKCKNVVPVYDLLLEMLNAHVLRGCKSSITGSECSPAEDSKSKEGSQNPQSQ
- Assay comment: Solid phase ER binding assay (3H-estradiol competition), ER-β
- Condition description: ER binding assay of Example 18
Quantity kind: Ki (nM)

>  <Compound structure>
CCN(CC)CCOc1ccc(-c2c(-c3ccccc3)c(=O)oc3cc(O)ccc23)cc1

>  <Quantity kind>
Ki

>  <Data value>
1560

$$$$

----------
- Study system: human full-length ER-β (Homo sapiens)
- Construct: expression vectors for human full-length ER-α or ER-β
- Sequence (Q92731 whole entry): as the sequence (Q92731 whole entry) above
- Assay comment: IL-6 production in U2OS osteosarcoma cells stably transfected with ER-β
Recorded measurements of IC50, one per entry

>  <Compound>
CCN(CC)CCOc1ccc(-c2c(-c3ccccc3)c(=O)oc3cc(O)ccc23)cc1 [Compound No. 38]

>  <Censor symbol>
=

>  <IC50 / nM>
165

$$$$
>  <Compound>
CCN(CC)CCOc1ccc(-c2c(-c3ccccc3)c(=O)oc3ccccc23)cc1 ["L-20", reference compound]

>  <Censor symbol>
>

>  <IC50 / nM>
1000

$$$$
>  <Compound>
O=c1oc2cc(O)ccc2c(-c2ccc(OCCN3CCCCC3)cc2)c1-c1ccc(Cl)cc1 [compound 16]

>  <Censor symbol>
=

>  <IC50 / nM>
51

$$$$

----------
- Study system: human recombinant ER-α (Homo sapiens, UniProt P03372)
- Assay comment: Solid phase ER binding assay (3H-estradiol competition), ER-α
- Condition description: read-out: Solid Phase ER Binding Ki (nM) ER-α; ER-α 15 nM, 30 nM 3H-estradiol, room temperature; average of at least 3 experiments
Quantity kind: Ki (nM)

>  <Compound structure>
O=c1oc2cc(O)ccc2c(Cc2ccc(OCCN3CCCCC3)cc2)c1-c1ccccc1

>  <Data value>
1.4

$$$$
